B1: PWWP2B (parent)
chain: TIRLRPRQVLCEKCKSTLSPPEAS

- Variants of: B1
- Test details: protein stability index of a GFP-peptide fusion (GPS, HEK-293T) (PSI 1-6); higher = more stable;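 further: lentivirally expressed fusions sorted by FACS into six bins by GFP to DsRed ratio, PSI derived from sequencing read proportions per bin multiplied by bin number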
- Stated conditions: c terminus: a fixed tail appended
Below, each of the variants is paired with its reported protein stability index value.
Measured quantity: protein stability index

sequence_string="TIRLRPRQVLCEKCMSTLSPPEAS [K15M]" result=2.79
sequence_string="TIRLRPRQVLCEKCKSQLSPPEAS [T17Q]" result=2.78
sequence_string="TYRLRPRQVLCEKCKSTLSPPEAS [I2Y]" result=3.04
sequence_string="TIRLRPWQVLCEKCKSTLSPPEAS [R7W]" result=2.16
sequence_string="TIRLRQRQVLCEKCKSTLSPPEAS [P6Q]" result=3.02
sequence_string="TIRLRPRQVLCEKCKETLSPPEAS [S16E]" result=3.65
sequence_string="TIRLRPRQVLCEKCKSTLSPPEAR [S24R]" result=3.02
sequence_string="TIRLRPRQVLNEKCKSTLSPPEAS [C11N]" result=3.62
sequence_string="TIRLRPRQVLCEKCWSTLSPPEAS [K15W]" result=2.76
sequence_string="TIRLRPRQVLCIKCKSTLSPPEAS [E12I]" result=1.93
sequence_string="TIRLQPRQVLCEKCKSTLSPPEAS [R5Q]" result=3
sequence_string="TIRLRPRQALCEKCKSTLSPPEAS [V9A]" result=3.61
sequence_string="TIRLRPRQVLCEKCKSTLSPMEAS [P21M]" result=2.73
sequence_string="TIRLRPRQVNCEKCKSTLSPPEAS [L10N]" result=3.53
sequence_string="TFRLRPRQVLCEKCKSTLSPPEAS [I2F]" result=3.54
sequence_string="TIRLRPRQVLCETCKSTLSPPEAS [K13T]" result=2.39
sequence_string="TIRLRPRQVLCEKCKNTLSPPEAS [S16N]" result=3.34
sequence_string="TIRLRPRQVLCEKCKSTRSPPEAS [L18R]" result=2.49
sequence_string="TIRLRPRLVLCEKCKSTLSPPEAS [Q8L]" result=2.58
sequence_string="TIRLRKRQVLCEKCKSTLSPPEAS [P6K]" result=2.82
sequence_string="TIRLRPRQVLCEKCHSTLSPPEAS [K15H]" result=2.57
sequence_string="TIRLRPRQVLCAKCKSTLSPPEAS [E12A]" result=2.59
